Data provenance is ChEMBL document CHEMBL4673307.

Assay: Cmax in Sprague-Dawley rat at 10 mg/kg, po measured upto 24 hrs by LC-MS/MS analysis
Assay type: ADME, organism-based
Parameters: route oral, dose 10 mg/kg, time <=24
Conditions: in vivo
attribute measured: Cmax (ng/mL)

# chemical structure, attribute measured, output unit, quantitative result
records = [
    ("C=CC(=O)Nc1ccccc1Nc1ccc2c(C(=O)c3cc(OC)cc(OC)c3)c[nH]c2n1", "Cmax", "ng/mL", 33.9),
]

---

Test: Tmax in Sprague-Dawley rat at 1 mg/kg, iv measured upto 24 hrs by LC-MS/MS analysis
Format: ADME, organism-based
Conditions: in vivo
attribute measured: Tmax (min)

# chemical structure, attribute measured, quantitative result
records = [
    ("C=CC(=O)Nc1ccccc1Nc1ccc2c(C(=O)c3cc(OC)cc(OC)c3)c[nH]c2n1", "Tmax", 4.98),
]
